Origin of measurements: patent US10633635B2

System: MAFA or UCN3
Experiment: Small molecule screen at Stage 7: induction of MAFA or UCN3 expression
Format: cell-based, human
Conditions: Stage 7 at 20 mM D-glucose plus BME Vitamin supplement; 79 small molecules of Table XI
Method: The following example is directed to identification of small molecules that can enhance the maturation status of a pancreatic beta cell, via increasing the gene expression of mature beta cell markers including MAFA (v-maf avian musculoaponeurotic fibrosarcoma oncogene homolog A) or UCN3 (urocortin 3). […] In general, the embodiments herein differentiate human pluripotent cells substantially as described above in Stages 1-7. […] These small molecules were evaluated and 2 μM of each was added at Stage7. […]
endpoint_label: expression of the MAFA or UCN3

molecule | measured_result
COc1ccc(S(=O)(=O)ON=C2C=C(C)C(=O)C(C)=C2)cc1 [L002] | induced expression
CC(C)N(CCCNC(=O)Nc1ccc(C(C)(C)C)cc1)C[C@H]1O[C@@H](n2cc(Br)c3c(N)ncnc32)[C@H](O)[C@@H]1O [SGC0946] | induced expression
O=c1c(O)c(-c2ccc(O)c(O)c2)oc2cc(O)ccc12 [Fisetin] | induced expression
